# target-system: Aryl hydrocarbon receptor (Homo sapiens)
# experiment-notes: qHTS assay to identify small molecule that activate the aryl hydrocarbon receptor (AhR) signaling pathway (AID 743085); also: nearly all actives have a fitted effect of over 15% in size;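 as to activation: HG2L7.5c1 human HepG2 liver cells with stably integrated DRE-driven firefly reporter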
# test-conditions: HepG2 AhR-luc (HG2L7.5c1), luciferase, 24 h; series mostly up to 70.3 µM
Records with an inconclusive call do not appear. Activity calls are given as the source filed them. Calls follow the shape of the dose curve; as a rule, active = well fitted activation curve with a large enough effect in the repeat runs; inconclusive = weak or mixed curves; inactive = no such curve, though single readings can be large or run the other way.
Hi! Could you answer with just one of these? True = active, False = inactive

>>> qualitative_label("CCC(C)(C)C(=O)O")
"False"
>>> qualitative_label("O=C(NC(Cc1cc(=O)[nH]c2ccccc12)C(=O)O)c1ccc(Cl)cc1 (centres undefined)")
"False"
>>> qualitative_label("O=C(O)CN1C(=O)c2cccc3cccc(c23)C1=O")
"False"
>>> qualitative_label("c1ccc(CCCc2ccncc2)cc1")
"False"
>>> qualitative_label("Cc1ccc2nc(N)[nH]c(=O)c2c1Sc1ccncc1")
"True"
>>> qualitative_label("CN1CCCN(C(c2ccccc2)c2ccc(Cl)cc2)CC1 (centres undefined)")
"False"
>>> qualitative_label("C=CC(=O)NC(C)C")
"False"
>>> qualitative_label("CCCCC(CC)COS(=O)(=O)O (centres undefined)")
"False"

**Query** GET /call?item= CC(C)COC(=O)c1ccc(O)cc1 returns the recorded outcome of this test.
**Result** False

**Query** Call for entry CC1=CC[C@@]23C[C@@H]1C(C)(C)[C@@H]2CC[C@H]3C :
**Result** False

**Query** Field: outcome | Entry: COc1ccc(-n2nc(C(F)F)cc2-c2ccc(S(C)=O)cc2)cc1 (centres undefined)
**Result** False

**Query** Kindly provide the recorded test outcome for the following compound: C=CCOC(=O)COCCC(C)C
**Result** False
